# Tested on: NCI-H226 lung
# assay-comment: NCI tumour cell line growth inhibition, 48 h; in the data active = GI50 below about 0.43 µM; inactive = the rest
Permitted responses: active, inactive

Consider the following illustrative entries.
[[record]]
molecule = "Cc1c(C)c2c(c(C)c1NC(=O)/C=C\\C(=O)O)CCC(C)(CCCC(C)CCCC(C)CCCC(C)C)O2 (stereo not given)"
assigned_category = "inactive"

[[record]]
molecule = "C=C1C(=O)O[C@H]2[C@H]1CC/C(Cn1cc(CNCCc3c[nH]c4ccc(Cl)cc34)nn1)=C\\CC[C@@]1(C)O[C@@H]21"
assigned_category = "inactive"

[[record]]
molecule = "O=S(=O)(Nc1cc(Br)c(O)c2ccccc12)c1ccc(F)cc1"
assigned_category = "inactive"

[[record]]
molecule = "COC1C(O)C(C)OC(OC2C(Oc3cccc4c(O)c5c(=O)oc6ccc(C)c7c(=O)oc(c34)c5c67)OC(C)C3O[C@H](c4ccccc4)OC32)C1O (stereo not given in full)"
assigned_category = "active"

[[record]]
molecule = "CCN(CC)C(=O)CC1=C(C)/C(=C/c2[nH]c(-c3ccc[nH]3)cc2OC)N=C1C"
assigned_category = "inactive"

[[record]]
molecule = "Cc1onc(-c2c(F)cccc2Cl)c1-c1ncc(-c2ccc(Cl)cc2)o1"
assigned_category = "inactive"

[[record]]
molecule = "COc1cccc(C(=O)Nc2ccc(CN3CCc4nc5cc(OC)c(OC)cc5cc43)cc2)c1"
assigned_category = "inactive"

[[record]]
molecule = "Cc1oc2nc[nH]c(=O)c2c1C(=O)/C=C/c1ccc(Cl)cc1"
assigned_category = "inactive"

[[record]]
molecule = "NC(=O)c1cc(-c2ccncc2)cc(-c2ccccc2)c1N"
assigned_category = "inactive"


We now examine a further molecule.
Exam item: Answer briefly: the call reported for CN(Cc1cnc(N)nc1N)c1ccc(C(=O)O)cc1 in this assay.
Marked response: inactive

###

# Tested on: A498 renal
# assay-comment: NCI tumour cell line growth inhibition, 48 h
Let's look at some molecules and their measured GI50.

Solved entries (count: 3):
[[record]]
substance_smiles = "[C-]#[O+].[Cl][Sn]([Cl])[Cl].[Cl][Sn]([Cl])[Cl].[Pt].c1ccc([PH+](c2ccccc2)c2ccccc2)cc1.c1ccc([PH+](c2ccccc2)c2ccccc2)cc1"
observed_measurement = "18.8 µM"

[[record]]
substance_smiles = "O=C(/C=C/c1ccccc1)c1c[nH]c2ccccc2c1=O"
observed_measurement = "2.3 µM"

[[record]]
substance_smiles = "NC(=O)c1cc(-c2ccncc2)cc(-c2ccccc2)c1N"
observed_measurement = "4.64 µM"


Exam item: Dear colleague, I am looking for the recorded GI50 of the following molecule: COc1ccc(C[n+]2c3ccccc3n3c4ccc(N)cc4ccc32)c(OC)c1OC
Marked response: 17.5 µM

Exam item: Similarly, COc1ccc2c(c1)[C@]1(C[C@H]1c1ccc3c(/C=C/c4ccc(CN5C[C@@H](C)O[C@@H](C)C5)cc4)n[nH]c3c1)C(=O)N2 ?
Marked response: 2.34 µM

Exam item: Similarly, O=C(/C=C1\C(=O)N(Cc2ccc([N+](=O)[O-])cc2)c2ccccc21)c1ccc(OCCN2CCCCC2)cc1 ?
Marked response: 4.09 µM

Exam item: Similarly, O=C(CCCn1c(=O)c2sc3ccccc3c2n2nnc(-c3ccccc3)c12)NCCc1cnc[nH]1 ?
Marked response: 1.55 µM

Exam item: Similarly, Cn1cc(C2=C(c3c4n(c5ccccc35)CCCC4)C(=O)NC2=O)c2ccccc21 ?
Marked response: 5.19 µM
